Assay: Mouse pharmacokinetics
Format: in vivo, male ICR mice
Conditions: male, ICR, mouse, in vivo, iv; plasma analyte after single i.v. dose of compound 2 15 mg/kg, mice
readout-kind: half-life (h)

{"compound": "CC(C)[C@H](NC(=O)Oc1cc2oc(-c3ccccc3)cc(=O)c2c(O)c1O)C(=O)O [Compound 2]", "readout-kind": "half-life", "endpoint-unit": "h", "value-reported": 1.9}

* * *

Test: Mouse pharmacokinetics
Assay type: in vivo, male ICR mice
Details: male, ICR, mouse, po; plasma analyte after single p.o. dose of compound 2 50 mg/kg, mice
Recorded Tmax values for a group of compounds are listed next.

{"smiles-record": "O=C(O)[C@H]1O[C@@H](Oc2cc3oc(-c4ccccc4)cc(=O)c3c(O)c2O)[C@H](O)[C@@H](O)[C@@H]1O", "Tmax, h": 6}
{"smiles-record": "O=c1cc(-c2ccccc2)oc2cc(O)c(O)c(O)c12", "Tmax, h": 0.3}

* * *

Experiment: Mouse pharmacokinetics
Assay type: in vivo, male ICR mice
Details: male, ICR, mouse, po; plasma analyte after single p.o. dose of compound 2 50 mg/kg, mice
readout-kind: half-life

{"smiles-record": "O=c1cc(-c2ccccc2)oc2cc(O)c(O)c(O)c12", "readout-kind": "half-life", "value-reported": "2.6 h"}

* * *

Assay: Mouse pharmacokinetics
Type: in vivo, male ICR mice
Details: male, ICR, mouse, in vivo, iv; plasma analyte after single i.v. dose of compound 2 15 mg/kg, mice
Procedure: Pharmacokinetic studies were conducted with male ICR mice (8 weeks old; 30–35 g body wt.) purchased from Koatech Company (Pyeongtaek, Korea), as reported previously. Intravenous dosing solutions were prepared in EtOH/20% aqueous HPβCD (10/90 vol%) at 2 and 3 mg/mL for baicalein and compound 2, respectively. Oral dosing solutions were prepared in EtOH/tween 80/20% aqueous HPβCD (10/10/80 vol%) at 1 and 1.5 mg/mL for baicalein and compound 2, respectively. […]
readout-kind: Tmax (min)

{"smiles-record": "CC(C)[C@H](NC(=O)Oc1cc2oc(-c3ccccc3)cc(=O)c2c(O)c1O)C(=O)O", "readout-kind": "Tmax", "endpoint-unit": "min", "value-reported": 6}

* * *

Test: Mouse pharmacokinetics
Assay type: in vivo, male ICR mice
Settings: male, ICR, mouse, in vivo; oral bioavailability of compound 2, p.o. 50 mg/kg vs i.v. 15 mg/kg, mice

{"compound": "CC(C)[C@H](NC(=O)Oc1cc2oc(-c3ccccc3)cc(=O)c2c(O)c1O)C(=O)O [Compound 2]", "bioavailability, %": 2}

* * *

Test: Mouse pharmacokinetics
Format: in vivo, male ICR mice
Conditions: male, ICR, mouse, in vivo, iv; single i.v. dose of compound 2 15 mg/kg, mice; read-out: VSS

{"molecule": "CC(C)[C@H](NC(=O)Oc1cc2oc(-c3ccccc3)cc(=O)c2c(O)c1O)C(=O)O [Compound 2]", "Vd (L/kg)": 0.4}

* * *

Test: Mouse pharmacokinetics
Type: in vivo, male ICR mice
Conditions: male, ICR, mouse, in vivo, po; plasma analyte after single p.o. dose of compound 2 50 mg/kg, mice
Description: Pharmacokinetic studies were conducted with male ICR mice (8 weeks old; 30–35 g body wt.) purchased from Koatech Company (Pyeongtaek, Korea), as reported previously. Intravenous dosing solutions were prepared in EtOH/20% aqueous HPβCD (10/90 vol%) at 2 and 3 mg/mL for baicalein and compound 2, respectively. Oral dosing solutions were prepared in EtOH/tween 80/20% aqueous HPβCD (10/10/80 vol%) at 1 and 1.5 mg/mL for baicalein and compound 2, respectively. […]

{"smiles-record": "CC(C)[C@H](NC(=O)Oc1cc2oc(-c3ccccc3)cc(=O)c2c(O)c1O)C(=O)O", "Tmax (min)": 18}

* * *

Assay: Chemical stability in physiologically-relevant solutions
Type: physicochemical
Conditions: pH 6.5 buffer (0.1 M potassium phosphate), 37 °C
readout-kind: half-life at 10 μM

{"molecule": "C[C@H](NC(=O)Oc1cc2oc(-c3ccccc3)cc(=O)c2c(O)c1O)C(=O)O [Compound 6]", "value-reported": "> 4 h"}
{"molecule": "CC(C)C[C@H](NC(=O)Oc1cc2oc(-c3ccccc3)cc(=O)c2c(O)c1O)C(=O)O [Compound 1]", "value-reported": "> 4 h"}
{"molecule": "CC(C)[C@H](NC(=O)Oc1cc2oc(-c3ccccc3)cc(=O)c2c(O)c1O)C(=O)O [Compound 2]", "value-reported": "> 4 h"}
{"molecule": "C[C@@H](O)[C@H](NC(=O)Oc1cc2oc(-c3ccccc3)cc(=O)c2c(O)c1O)C(=O)O [Compound 4]", "value-reported": "2.8 h"}

* * *

Assay: Mouse pharmacokinetics
Format: in vivo, male ICR mice
Conditions: male, ICR, mouse, in vivo, iv; plasma analyte after single i.v. dose of compound 2 15 mg/kg, mice

{"smiles-record": "CC(C)[C@H](NC(=O)Oc1cc2oc(-c3ccccc3)cc(=O)c2c(O)c1O)C(=O)O", "AUC(0-inf) (ng·h/mL)": 88700}

* * *

Experiment: Chemical stability in physiologically-relevant solutions
Assay type: physicochemical
Conditions: pH 1; 0.1 N HCl, 37 °C, at 4 h vs time 0
Procedure: Stock solutions of the test compounds (baicalein, compounds 1–7) prepared in MeOH at 10 mM were diluted in 0.1 N HCl and 0.1 M potassium phosphate buffer (pH 6.5 and 7.4) in triplicate to a final concentration of 10 μM. The mixtures were then incubated at 37 °C in a shaking water bath. Samples taken at 0, 1, 2, 3 and 4 h were analyzed by Thermo UltiMate 3000 series HPLC system. […]

{"smiles-record": "O=c1cc(-c2ccccc2)oc2cc(O)c(O)c(O)c12", "remaining at 4 h, 10 μM (%)": 104}

* * *

Assay: Chemical stability in physiologically-relevant solutions
Type: physicochemical
Conditions: 0.1 M potassium phosphate buffer; pH 7.4 buffer, 37 °C, at 4 h vs time 0

{"smiles-record": "O=c1cc(-c2ccccc2)oc2cc(O)c(O)c(O)c12", "remaining at 4 h, 10 μM": "65.8%"}

* * *

Test: Chemical stability in physiologically-relevant solutions
Assay type: physicochemical
Conditions: buffer, pH 1; 0.1 N HCl, 37 °C, at 4 h vs time 0
Please respond with 1 when measured remaining at 4 h, 10 μM is strictly beneath 30%, and with -1 in all other cases.

{"compound": "C[C@@H](O)[C@H](NC(=O)Oc1cc2oc(-c3ccccc3)cc(=O)c2c(O)c1O)C(=O)O [Compound 4]", "assigned-category": -1}
{"compound": "O=C(O)CNC(=O)Oc1cc2oc(-c3ccccc3)cc(=O)c2c(O)c1O [Compound 7]", "assigned-category": 1}
{"compound": "CC(C)[C@H](NC(=O)Oc1cc2oc(-c3ccccc3)cc(=O)c2c(O)c1O)C(=O)O [Compound 2]", "assigned-category": -1}
{"compound": "C[C@H](NC(=O)Oc1cc2oc(-c3ccccc3)cc(=O)c2c(O)c1O)C(=O)O [Compound 6]", "assigned-category": -1}
{"compound": "CC[C@@H](C)[C@H](NC(=O)Oc1cc2oc(-c3ccccc3)cc(=O)c2c(O)c1O)C(=O)O [Compound 3]", "assigned-category": -1}
{"compound": "O=C(N[C@@H](Cc1ccccc1)C(=O)O)Oc1cc2oc(-c3ccccc3)cc(=O)c2c(O)c1O [Compound 5]", "assigned-category": 1}
{"compound": "CC(C)C[C@H](NC(=O)Oc1cc2oc(-c3ccccc3)cc(=O)c2c(O)c1O)C(=O)O [Compound 1]", "assigned-category": 1}

* * *

Experiment: Chemical stability in physiologically-relevant solutions
Assay type: physicochemical
Conditions: pH 6.5 buffer, 37 °C, at 4 h vs time 0
Please respond with True when measured remaining at 4 h, 10 μM is strictly beneath 90%, and with False in all other cases.

{"compound": "O=C(N[C@@H](Cc1ccccc1)C(=O)O)Oc1cc2oc(-c3ccccc3)cc(=O)c2c(O)c1O [Compound 5]", "assigned-category": "True"}
{"compound": "CC(C)C[C@H](NC(=O)Oc1cc2oc(-c3ccccc3)cc(=O)c2c(O)c1O)C(=O)O [Compound 1]", "assigned-category": "False"}
{"compound": "C[C@@H](O)[C@H](NC(=O)Oc1cc2oc(-c3ccccc3)cc(=O)c2c(O)c1O)C(=O)O [Compound 4]", "assigned-category": "True"}
{"compound": "O=C(O)CNC(=O)Oc1cc2oc(-c3ccccc3)cc(=O)c2c(O)c1O [Compound 7]", "assigned-category": "True"}
{"compound": "CC(C)[C@H](NC(=O)Oc1cc2oc(-c3ccccc3)cc(=O)c2c(O)c1O)C(=O)O [Compound 2]", "assigned-category": "False"}
{"compound": "C[C@H](NC(=O)Oc1cc2oc(-c3ccccc3)cc(=O)c2c(O)c1O)C(=O)O [Compound 6]", "assigned-category": "True"}

* * *

Assay: Mouse pharmacokinetics
Format: in vivo, male ICR mice
Conditions: male, ICR, mouse, iv; plasma analyte after single i.v. dose of compound 2 15 mg/kg, mice

{"smiles-record": "O=C(O)[C@H]1O[C@@H](Oc2cc3oc(-c4ccccc4)cc(=O)c3c(O)c2O)[C@H](O)[C@@H](O)[C@@H]1O", "endpoint-unit": "ng·h/mL", "AUC(0-inf)": 500}
{"smiles-record": "O=c1cc(-c2ccccc2)oc2cc(O)c(O)c(O)c12", "endpoint-unit": "ng·h/mL", "AUC(0-inf)": 4390}

Reference source: paper PMC8472512
